- Test system: biotinyl-Met-oxazolone
- assay_info: self-aminoacylation, catalytic enhancement (BMO) (fold over background); higher = more active; k-Seq, kA / k0A0; sequences stand for … in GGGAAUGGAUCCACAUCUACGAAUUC…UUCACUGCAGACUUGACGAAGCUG
Fewer inactive variants are shown than the library holds.
Record 1.0 whenever self-aminoacylation is at 2 or higher; record 0.0 when lower.

{"columns": ["ordered_residues", "class_label"],
 "data": [
  ["AUUCACCCAGGUCACCGGGUG [Fam2.2 aminoacylation ribozyme variant]", 1.0],
  ["CCACCCUUCAAGGAAUCGGUC [Fam1B.1 aminoacylation ribozyme variant]", 0.0],
  ["AUUCACCUCGAUCAUCGGGUG [Fam2.2 aminoacylation ribozyme variant]", 1.0],
  ["AUUACCCUGAUCAUCGAGUGU [Fam2.1 aminoacylation ribozyme variant]", 1.0],
  ["GUACUUCAAACAAUCGGUGUG [Fam1A.1 aminoacylation ribozyme variant]", 1.0],
  ["AUUACGCUGGUGAUCGAGUGA [Fam2.1 aminoacylation ribozyme variant]", 1.0],
  ["AAGUUUGCUAAUAGUGGUAAG [Fam3.1 aminoacylation ribozyme variant]", 0.0],
  ["CUACUUCAAACAUUCUGUCUG [Fam1A.1 aminoacylation ribozyme variant]", 0.0],
  ["AAGUUUGCUAAAUGUCGCAAG [Fam3.1 aminoacylation ribozyme variant]", 0.0],
  ["CCACGCUUCAAGCAAUCGGUG [Fam1B.1 aminoacylation ribozyme variant]", 1.0],
  ["AUUCACCUGGGGCAUCGGGUG [Fam2.2 aminoacylation ribozyme variant]", 1.0],
  ["AAAUUCGCUAAUAGUCGCAAG [Fam3.1 aminoacylation ribozyme variant]", 1.0],
  ["AUUCACCGAGGUCAUCUGGUG [Fam2.2 aminoacylation ribozyme variant]", 1.0],
  ["CUACCUCAAAUAAUCGGUCUG [Fam1A.1 aminoacylation ribozyme variant]", 0.0],
  ["AUGCACCUAUGUCAUCGGGUG [Fam2.2 aminoacylation ribozyme variant]", 1.0],
  ["AAUCACCUAGGUCAUCGGUUG [Fam2.2 aminoacylation ribozyme variant]", 0.0],
  ["AAAUUUGCUCAUAGUCGCAAG [Fam3.1 aminoacylation ribozyme variant]", 1.0]
]}
